Each recorded value in this set is attributed to paper PMC5630632.

Examples of compounds with documented Emax follow.
# tested-target: R172Q mIDH2 (Homo sapiens, UniProt P48735, R172Q)
# Sequence (P48735 40-452 R172Q): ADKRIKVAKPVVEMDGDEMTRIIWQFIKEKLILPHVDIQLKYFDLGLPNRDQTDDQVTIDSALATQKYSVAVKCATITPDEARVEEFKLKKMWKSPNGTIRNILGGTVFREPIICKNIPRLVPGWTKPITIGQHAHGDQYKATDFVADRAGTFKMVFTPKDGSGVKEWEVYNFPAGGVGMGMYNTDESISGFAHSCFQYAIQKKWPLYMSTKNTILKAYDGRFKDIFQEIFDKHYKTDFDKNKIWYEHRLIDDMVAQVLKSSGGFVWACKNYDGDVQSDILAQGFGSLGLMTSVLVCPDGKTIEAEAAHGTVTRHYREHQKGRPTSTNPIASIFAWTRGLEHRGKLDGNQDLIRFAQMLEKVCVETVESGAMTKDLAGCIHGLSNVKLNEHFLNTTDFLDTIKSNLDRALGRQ
# assay-text: mIDH2-R172Q enzyme assay (Reaction Biology), diaphorase/resazurin coupled
# study-conditions: read-out: IDH2 R172Q % EMax

| smiles | tested-target | Emax [%] |
| --- | --- | --- |
| Cc1ccccc1[C@@H](C(=O)NC1CCCC1)N(C(=O)Cn1cnc2ccccc21)c1cccc(F)c1 | R172Q mIDH2 (Homo sapiens, UniProt P48735, R172Q) | 10.1 |
| CC(=O)N1CCN(Cc2ccc([C@H](C)Nc3nccc(N4C(=O)OC[C@@H]4C(C)C)n3)cc2)CC1 | R172Q mIDH2 (Homo sapiens, UniProt P48735, R172Q) | 6.6 |
| COc1c(C)cc(NC(=O)c2nn(Cc3ccc(F)cc3)c3c2CN(C(=O)c2ccc[nH]2)C[C@]3(C)C(N)=O)cc1C | R172Q mIDH2 (Homo sapiens, UniProt P48735, R172Q) | 63 |
| CC(C)(C)CC(C)(C)c1cc(Cn2ccnc2)c(O)c(Cn2ccnc2)c1 | R172Q mIDH2 (Homo sapiens, UniProt P48735, R172Q) | 3.2 |
